Test system Beta-secretase 2 (Homo sapiens), IC50 listed for each of the compounds.

chemical_smiles=C[C@H](NC[C@@H](O)[C@H](Cc1ccccc1)NC(=O)c1cc(N2CCCC2)cc(N2CCCC2=O)c1)C(=O)NC1CCCCC1 metric_name=IC50 val="8.79 µM"
chemical_smiles=CCCCCOc1cc(C(=O)N[C@@H](Cc2ccccc2)[C@H](O)CN[C@@H](C)C(=O)NC2CCCCC2)cc(N2CCCC2=O)c1 metric_name=IC50 val="0.4 µM"
chemical_smiles=CC(=O)Nc1ccc(C(=O)N[C@@H](Cc2ccccc2)[C@H](O)CN[C@@H](C)C(=O)NC2CCCCC2)cc1 metric_name=IC50 val="> 100 µM"

In: # query: IC50 | item COc1cc(C(=O)N[C@@H](Cc2ccccc2)[C@H](O)CN[C@@H](C)C(=O)NC2CCCCC2)cc(N2CCCC2=O)c1 | system: Beta-secretase 2 (Homo sapiens)
Out: 28.6 µM
